Experimental protocol: Zeta-potential measurement
Format: physicochemical
Protocol conditions: zeta-potential of peptide; source data of Figure 2C
Procedure: 4 µL of 1 mg/mL peptide fibrils solution is added to a 20 µL, 50 µM ThT–solution in PBS. The mixture is incubated for 15 min at RT to allow binding of ThT dye with β–sheet rich structures. […] Fluorescence spectra were recorded on an Infinite® M1000 PRO microplate reader (Tecan) at λem = 488 nm upon excitation at λex = 440 nm with 10 nm bandwidths and multiple reads per well (3×3). […] Furthermore, fluorescence microscopy was conducted by staining 1 µL preformed fibrils (1 mg/mL) with 9 µL ThT (50 µM). […]
Category scheme (Zeta-Potential / mV): interval 1 (below 3 mV), interval 2 (3 mV to below 10 mV), interval 3 (10 mV or more)

[
  {
    "Substance": "EIKIQINM",
    "Category label": "interval 1"
  },
  {
    "Substance": "KIEIQINM",
    "Category label": "interval 1"
  },
  {
    "Substance": "CKIKQIINMWQ",
    "Category label": "interval 3"
  },
  {
    "Substance": "KYKYQY",
    "Category label": "interval 1"
  },
  {
    "Substance": "CKFKQFF",
    "Category label": "interval 2"
  },
  {
    "Substance": "CKYKYQY",
    "Category label": "interval 2"
  },
  {
    "Substance": "KIKIQINMWWQ",
    "Category label": "interval 3"
  },
  {
    "Substance": "CKAKAQANMWQ",
    "Category label": "interval 1"
  },
  {
    "Substance": "HGEHGEHGE",
    "Category label": "interval 1"
  },
  {
    "Substance": "HHHHKIKIKIKIWWWW",
    "Category label": "interval 3"
  },
  {
    "Substance": "RGDKIKIQIC",
    "Category label": "interval 3"
  },
  {
    "Substance": "HHHHKAKAKAKAWWWW",
    "Category label": "interval 3"
  },
  {
    "Substance": "KFKFQFNMW",
    "Category label": "interval 3"
  },
  {
    "Substance": "HLHLPLL",
    "Category label": "interval 1"
  },
  {
    "Substance": "KIKIKIQINMWQ",
    "Category label": "interval 3"
  },
  {
    "Substance": "KWKWQW",
    "Category label": "interval 2"
  },
  {
    "Substance": "KFKFQFNM",
    "Category label": "interval 3"
  },
  {
    "Substance": "CKIKIQI",
    "Category label": "interval 3"
  },
  {
    "Substance": "CKIKQII",
    "Category label": "interval 2"
  },
  {
    "Substance": "RLRLTLC",
    "Category label": "interval 3"
  }
]

###

Experimental protocol: β-sheet content by ATR-FT-IR
Format: physicochemical
Protocol conditions: Fig. S7 panel A; β-sheet content by ATR-FT-IR

[
  {
    "Substance": "CKFKFQFNM",
    "Endpoint unit": "%",
    "b -sheet / %": 41
  },
  {
    "Substance": "CKIKIQINMWQ",
    "Endpoint unit": "%",
    "b -sheet / %": 44.89
  },
  {
    "Substance": "HRRHFRHKITKKK",
    "Endpoint unit": "%",
    "b -sheet / %": 45.34
  },
  {
    "Substance": "CKAKAQANM",
    "Endpoint unit": "%",
    "b -sheet / %": 34.22
  },
  {
    "Substance": "CHLHLQL",
    "Endpoint unit": "%",
    "b -sheet / %": 49.52
  },
  {
    "Substance": "CKFKQFF",
    "Endpoint unit": "%",
    "b -sheet / %": 45.4057
  },
  {
    "Substance": "KIKIKIKIYYYY",
    "Endpoint unit": "%",
    "b -sheet / %": 56.7
  },
  {
    "Substance": "SISISRRI",
    "Endpoint unit": "%",
    "b -sheet / %": 48.78
  },
  {
    "Substance": "ILKNLSRSRKIKIQINMWQ",
    "Endpoint unit": "%",
    "b -sheet / %": 39.13
  },
  {
    "Substance": "KAKAQANMWQ",
    "Endpoint unit": "%",
    "b -sheet / %": 42.81
  }
]

###

Type: physicochemical
Protocol conditions: Fig S10 panel D
Metric name: Tht category (> 2 to blank = +)

[
  {
    "Substance": "KNDKND",
    "Value": "0 (ThT-inactive (N-Fold <2))"
  },
  {
    "Substance": "KLKLKLQL",
    "Value": "0 (ThT-inactive (N-Fold <2))"
  },
  {
    "Substance": "KIKIQINMWA",
    "Value": "0 (ThT-inactive (N-Fold <2))"
  },
  {
    "Substance": "RGDKIKIQINM",
    "Value": "1 (ThT. Cat is 1, if Rel. ThT >2)"
  },
  {
    "Substance": "KVKVQVV",
    "Value": "0 (ThT-inactive (N-Fold <2))"
  },
  {
    "Substance": "CKFKFQFNMWQ",
    "Value": "1 (ThT. Cat is 1, if Rel. ThT >2)"
  },
  {
    "Substance": "FDPFDPFDP",
    "Value": "0 (ThT-inactive (N-Fold <2))"
  },
  {
    "Substance": "RGDSGGGGGGKIKIQIC",
    "Value": "1 (ThT. Cat is 1, if Rel. ThT >2)"
  },
  {
    "Substance": "RGDKIRGDKI",
    "Value": "0 (ThT-inactive (N-Fold <2))"
  },
  {
    "Substance": "CKIKQIINMWQ",
    "Value": "1 (ThT. Cat is 1, if Rel. ThT >2)"
  },
  {
    "Substance": "CEFEFQF",
    "Value": "0 (ThT-inactive (N-Fold <2))"
  },
  {
    "Substance": "KIKQIINM",
    "Value": "0 (ThT-inactive (N-Fold <2))"
  },
  {
    "Substance": "CRFRVPF",
    "Value": "0 (ThT-inactive (N-Fold <2))"
  },
  {
    "Substance": "QCKIKQII",
    "Value": "1 (ThT. Cat is 1, if Rel. ThT >2)"
  },
  {
    "Substance": "CKFKQFFNM",
    "Value": "1 (ThT. Cat is 1, if Rel. ThT >2)"
  },
  {
    "Substance": "CKWKWQW",
    "Value": "0 (ThT-inactive (N-Fold <2))"
  },
  {
    "Substance": "CKIKIQIII",
    "Value": "1 (ThT. Cat is 1, if Rel. ThT >2)"
  },
  {
    "Substance": "KWKWQW",
    "Value": "0 (ThT-inactive (N-Fold <2))"
  },
  {
    "Substance": "KIKIQINAWQ",
    "Value": "1 (ThT. Cat is 1, if Rel. ThT >2)"
  },
  {
    "Substance": "KIKIQINMW",
    "Value": "1 (ThT. Cat is 1, if Rel. ThT >2)"
  },
  {
    "Substance": "KIKIKIQI",
    "Value": "1 (ThT. Cat is 1, if Rel. ThT >2)"
  },
  {
    "Substance": "HHHHKIKIKIKIYYYY",
    "Value": "1 (ThT. Cat is 1, if Rel. ThT >2)"
  },
  {
    "Substance": "KIRGKFEKED",
    "Value": "1 (ThT. Cat is 1, if Rel. ThT >2)"
  },
  {
    "Substance": "KIKIQINMWWQ",
    "Value": "0 (ThT-inactive (N-Fold <2))"
  },
  {
    "Substance": "MKIKIQINM",
    "Value": "0 (ThT-inactive (N-Fold <2))"
  },
  {
    "Substance": "KIKIKIKI",
    "Value": "1 (ThT. Cat is 1, if Rel. ThT >2)"
  },
  {
    "Substance": "QCKIKIQINM",
    "Value": "1 (ThT. Cat is 1, if Rel. ThT >2)"
  },
  {
    "Substance": "KIKIQIMWNQ",
    "Value": "0 (ThT-inactive (N-Fold <2))"
  },
  {
    "Substance": "QCKAKAQA",
    "Value": "0 (ThT-inactive (N-Fold <2))"
  },
  {
    "Substance": "CKIKIQINM",
    "Value": "1 (ThT. Cat is 1, if Rel. ThT >2)"
  },
  {
    "Substance": "EIEIQINM",
    "Value": "0 (ThT-inactive (N-Fold <2))"
  },
  {
    "Substance": "KFKFKFQF",
    "Value": "1 (ThT. Cat is 1, if Rel. ThT >2)"
  },
  {
    "Substance": "KLKLQLL",
    "Value": "0 (ThT-inactive (N-Fold <2))"
  },
  {
    "Substance": "KIKQIIN",
    "Value": "0 (ThT-inactive (N-Fold <2))"
  },
  {
    "Substance": "KIKQII",
    "Value": "0 (ThT-inactive (N-Fold <2))"
  },
  {
    "Substance": "RGEKIKIQINM",
    "Value": "1 (ThT. Cat is 1, if Rel. ThT >2)"
  },
  {
    "Substance": "KFKFQFN",
    "Value": "0 (ThT-inactive (N-Fold <2))"
  },
  {
    "Substance": "HIHIQIC",
    "Value": "1 (ThT. Cat is 1, if Rel. ThT >2)"
  },
  {
    "Substance": "QCKFKQFF",
    "Value": "1 (ThT. Cat is 1, if Rel. ThT >2)"
  }
]
